pIC50 values, listed per item
target: p110α Type Ia human PI3K (Homo sapiens, UniProt P42336); construct: full length DNA of each of the p110α, p110β and p110δ Type Ia human PI3K p110 isoforms; 6-His; Grp1 PH domain in E. coli; test: In vitro PI3K enzyme assay (AlphaScreen), Test (a); conditions: read-out: IC50 versus p110α Type Ia human PI3K
Sequence (P42336 whole entry, the tested form may be a part, canonical isoform): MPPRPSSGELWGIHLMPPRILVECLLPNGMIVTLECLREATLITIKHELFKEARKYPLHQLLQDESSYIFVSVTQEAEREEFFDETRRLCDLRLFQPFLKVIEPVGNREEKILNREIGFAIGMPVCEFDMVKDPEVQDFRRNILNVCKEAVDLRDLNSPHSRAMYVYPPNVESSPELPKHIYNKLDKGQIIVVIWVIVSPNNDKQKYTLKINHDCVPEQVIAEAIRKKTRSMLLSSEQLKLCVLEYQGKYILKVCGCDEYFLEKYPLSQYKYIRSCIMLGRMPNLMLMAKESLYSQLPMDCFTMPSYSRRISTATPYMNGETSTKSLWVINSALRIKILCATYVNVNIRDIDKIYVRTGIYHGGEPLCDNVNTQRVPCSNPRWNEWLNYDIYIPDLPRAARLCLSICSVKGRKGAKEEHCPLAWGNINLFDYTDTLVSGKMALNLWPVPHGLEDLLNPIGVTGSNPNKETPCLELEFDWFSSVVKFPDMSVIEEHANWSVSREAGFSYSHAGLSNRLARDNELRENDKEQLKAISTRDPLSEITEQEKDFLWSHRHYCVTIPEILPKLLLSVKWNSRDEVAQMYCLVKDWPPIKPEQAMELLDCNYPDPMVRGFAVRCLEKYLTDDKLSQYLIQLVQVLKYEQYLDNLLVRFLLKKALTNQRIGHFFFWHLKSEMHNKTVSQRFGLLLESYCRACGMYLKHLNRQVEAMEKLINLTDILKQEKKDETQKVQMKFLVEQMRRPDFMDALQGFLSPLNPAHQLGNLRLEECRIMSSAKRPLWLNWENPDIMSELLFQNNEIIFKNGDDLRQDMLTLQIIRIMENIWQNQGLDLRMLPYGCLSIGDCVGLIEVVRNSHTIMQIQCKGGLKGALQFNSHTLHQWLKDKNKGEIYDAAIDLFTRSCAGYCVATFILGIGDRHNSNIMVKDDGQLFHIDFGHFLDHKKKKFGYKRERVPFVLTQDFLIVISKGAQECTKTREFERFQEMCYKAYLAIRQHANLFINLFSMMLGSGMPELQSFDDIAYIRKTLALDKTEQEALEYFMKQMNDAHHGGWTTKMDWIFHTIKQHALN
Sequence (P27986 whole entry partner, the tested form may be a part, canonical isoform): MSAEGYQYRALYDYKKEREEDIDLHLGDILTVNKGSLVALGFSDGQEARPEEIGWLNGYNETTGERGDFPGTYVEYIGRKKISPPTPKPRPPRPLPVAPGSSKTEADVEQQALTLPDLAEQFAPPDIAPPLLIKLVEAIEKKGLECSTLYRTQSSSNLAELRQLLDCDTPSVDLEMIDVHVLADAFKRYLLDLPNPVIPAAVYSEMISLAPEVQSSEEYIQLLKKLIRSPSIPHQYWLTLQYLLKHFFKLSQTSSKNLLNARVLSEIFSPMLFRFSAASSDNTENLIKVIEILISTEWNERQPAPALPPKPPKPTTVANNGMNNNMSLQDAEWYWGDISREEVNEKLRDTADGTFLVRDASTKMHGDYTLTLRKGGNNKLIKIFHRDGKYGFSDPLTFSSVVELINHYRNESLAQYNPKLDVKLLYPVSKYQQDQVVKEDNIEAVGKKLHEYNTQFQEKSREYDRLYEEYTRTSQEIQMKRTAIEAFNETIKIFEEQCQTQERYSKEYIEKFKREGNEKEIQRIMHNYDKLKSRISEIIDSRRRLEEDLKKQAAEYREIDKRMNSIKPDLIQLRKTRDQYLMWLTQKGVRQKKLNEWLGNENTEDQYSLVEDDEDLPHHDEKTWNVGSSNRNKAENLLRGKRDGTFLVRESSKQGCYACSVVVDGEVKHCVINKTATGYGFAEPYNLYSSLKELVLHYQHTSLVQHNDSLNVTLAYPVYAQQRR
pIC50: −log10 of the molar value.
measure: pIC50

cpd-smiles: NCC(=O)N1CCC(c2cc(N3CCOCC3)nc(-n3c(C(F)F)nc4ccccc43)n2)CC1
assay-system: p110α Type Ia human PI3K (Homo sapiens, UniProt P42336)
measure: pIC50
reading: ~6.52
--
cpd-smiles: NCC(=O)N1CC=C(c2cc(N3CCOCC3)nc(-n3c(C(F)F)nc4ccccc43)n2)CC1
assay-system: p110α Type Ia human PI3K (Homo sapiens, UniProt P42336)
measure: pIC50
reading: ~7.00

====

Test system: phosphorylation of Serine 473 in Akt
Assay: In vitro phospho-Ser473 Akt assay in MDA-MB-468 cells, Test (c)
Type: cell-based
Details: Homo sapiens, read-out: IC50, inhibition of phosphorylation of Serine 473 in Akt
From the text: This assay determines the ability of test compounds to inhibit phosphorylation of Serine 473 in Akt as assessed using Acumen Explorer technology (TTP LabTech Limited, Royston, Herts, SG8 6EE, UK), a plate reader that can be used to rapidly quantitate features of images generated by laser-scanning. […]
pIC50: −log10 of the molar value.
measure: pIC50

cpd-smiles: NCC(=O)N1CCC(c2cc(N3CCOCC3)nc(-n3c(C(F)F)nc4ccccc43)n2)CC1
reading: ~7.00
--
cpd-smiles: NCC(=O)N1CC=C(c2cc(N3CCOCC3)nc(-n3c(C(F)F)nc4ccccc43)n2)CC1
reading: ~7.00
